Test system: SK-OV-3 ovarian
Assay: NCI tumour cell line growth inhibition, 48 h
parameter_measured: TGI

SK-OV-3 ovarian data for CC1OC(OC2C(OC(=O)[C@]34CCC(C)(C)C[C@H]3C3=CC[C@@H]5[C@@]6(C)CC[C@H](OC7OC(C(=O)O)C(O)C(O)C7O)C(C)(C)[C@@H]6CC[C@@]5(C)[C@]3(C)C[C@H]4O)OCC(O)C2O)C(O)C(OC2OCC(O)(CO)C2O)C1OC1OCC(O)C(O)C1O (some centres undefined) ; its TGI: 29.3 µM

SK-OV-3 ovarian data for CCN1c2ccccc2C(C(SC)S(=O)(=O)c2ccc(C)cc2)c2c1[nH]c(=O)n(C)c2=O (centres undefined) ; its TGI: > 100 µM

SK-OV-3 ovarian data for O=[N+]([O-])C(/C=C(\Cl)n1nnc2ccccc21)=C(/Cl)n1nnc2ccccc21 ; its TGI: > 100 µM

SK-OV-3 ovarian data for OCC#Cc1ccccc1C#Cc1ccccc1 ; its TGI: 33.9 µM

SK-OV-3 ovarian data for COP(=O)(/C=C/c1cc(C(=O)OCc2ccccc2)n(S(=O)(=O)c2ccccc2)c1)OC ; its TGI: > 100 µM

SK-OV-3 ovarian data for [O-][n+]1ccccc1Sc1nc(Sc2cccc[n+]2[O-])nc(Sc2cccc[n+]2[O-])n1 ; its TGI: 18.6 µM

SK-OV-3 ovarian data for O=[N+]([O-])c1ccc(Oc2c(Cl)cc(S(=O)(=O)/N=C(\NO)Nc3ccc(Cl)cc3)cc2Cl)cc1 ; its TGI: 31.2 µM

SK-OV-3 ovarian data for COc1cc(NCc2ccc3oc(=O)c(-c4ccccc4)nc3c2)cc(OC)c1OC ; its TGI: > 10 µM

SK-OV-3 ovarian data for C=C1NC(=O)C(C(C)CC)NC(=O)C2CSCC(NC(=O)CCC(=O)O)C(=O)NC(Cc3ccccc3)C(=O)NC(C)C(=O)NC(CC(C)CC)C(=O)NC(C(=O)NC(Cc3ccccc3)C(=O)N3CCCC3C(=O)N2)C(C)OC(=O)C(CO)NC(=O)C(C(O)COC)N(C)C(=O)C(C(C)C)NC(=O)C(CC(C)CC)NC1=O (centres undefined) ; its TGI: > 6 µM

SK-OV-3 ovarian data for CCNC(=O)Cc1nc2c(N)ncnc2n1C1OC(CO)C(O)C1O (centres undefined) ; its TGI: > 100 µM

SK-OV-3 ovarian data for NC1(C(=O)OCc2ccccc2)CCCC1 ; its TGI: 71.1 µM

SK-OV-3 ovarian data for O=c1c2sc(=S)n(-c3ccc(F)cc3)c2ncn1/N=C/c1ccc(F)cc1F ; its TGI: 53.7 µM

SK-OV-3 ovarian data for COc1ccc(NC(=O)CC(=O)N2N=C(N3c4ccccc4Sc4ccccc43)CC2c2ccccc2)cc1 (centres undefined) ; its TGI: > 100 µM

SK-OV-3 ovarian data for CSc1nc(NC2OCC(OC(C)=O)C(OC(C)=O)C2OC(C)=O)c(N=CC=Nc2c(NC3OCC(OC(C)=O)C(OC(C)=O)C3OC(C)=O)nc(SC)[nH]c2=O)c(=O)[nH]1 (centres undefined) ; its TGI: 80.1 µM

SK-OV-3 ovarian data for Cc1cc2c(cc1Cl)SC(N(N(C)C)S(=O)(=O)c1ccc(Cl)cc1)=NS2(=O)=O ; its TGI: > 100 µM

SK-OV-3 ovarian data for NS(=O)(=O)c1cc(Cl)c(NC(=S)NC(=O)Nc2ccc(Cl)c(Cl)c2)c(Cl)c1 ; its TGI: > 100 µM

SK-OV-3 ovarian data for CC(=N/N=C/c1ccccn1)/C(C)=N/N=C(C)/C(C)=N/N=C(C)/C(C)=N/N=C(C)/C(C)=N\N=C\c1ccccn1 ; its TGI: > 100 µM

SK-OV-3 ovarian data for O=C(O)/C=C(/C(=O)O)C12CCN3CC4=CCOC5CC(=O)NC1C5C4CC32 (centres undefined) ; its TGI: > 100 µM

SK-OV-3 ovarian data for CN(C)c1nc(=Nc2ccc(N=c3nc(N(C)C)ss3)cc2)ss1 ; its TGI: > 100 µM

SK-OV-3 ovarian data for CC1(C)C2CCC(=O)C1CC2 (centres undefined) ; its TGI: > 100 µM

SK-OV-3 ovarian data for COc1cccc(-c2nc(-c3ccc(NC(=O)C(C)C)cc3)[nH]c2-c2ccnc(Br)c2)c1 ; its TGI: > 100 µM

SK-OV-3 ovarian data for O=C(CSc1ccc(Cl)cc1)Nc1ccc(-c2nc3ccccc3s2)c(Cl)c1 ; its TGI: 44.1 µM

SK-OV-3 ovarian data for Clc1ccc(C(c2ccc(Cl)cc2)c2ccccn2)cc1 ; its TGI: 86.5 µM

SK-OV-3 ovarian data for O=C1c2ccccc2-c2c1c(-c1ccc(F)cc1)nc1ccc3ccccc3c21 ; its TGI: > 100 µM
